The values you see were collected from the RNAGym collection of RNA variant scans (doi:10.1126/science.aae0568).

B1: tRNA (parent)
chain: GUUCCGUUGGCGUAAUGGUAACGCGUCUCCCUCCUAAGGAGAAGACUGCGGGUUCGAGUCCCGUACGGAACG

- Variants of: B1
- test.details: yeast fitness relative to wild type (ratio to wild type); higher = fitter; tRNA-Arg(CCU), competitive growth, 37 C, YPD
Fewer inactive variants are shown than the library holds.
What yeast fitness was measured for each of the following?

mutation.label	quantity.measured	measured
U2G A57U	yeast fitness	0.66
A20U C31U G38C	yeast fitness	0.553
G17A U28G C30G A40C A42U	yeast fitness	≤ 0.5
C24G A36C A42U A43G	yeast fitness	≤ 0.5
C27G C31G C61A	yeast fitness	0.693
U2C U8A G38C C60A	yeast fitness	≤ 0.5

Each variant below has a reported value. Please supply its yeast fitness.
1. G12A C49U C66A
2. U7A G12C A57C

Result block:
1: ≤ 0.5; 2: ≤ 0.5
